TARGET OF ASSAY: Sodium channel protein type 2 subunit alpha (Homo sapiens, UniProt Q99250)
Sequence (Q99250 whole entry): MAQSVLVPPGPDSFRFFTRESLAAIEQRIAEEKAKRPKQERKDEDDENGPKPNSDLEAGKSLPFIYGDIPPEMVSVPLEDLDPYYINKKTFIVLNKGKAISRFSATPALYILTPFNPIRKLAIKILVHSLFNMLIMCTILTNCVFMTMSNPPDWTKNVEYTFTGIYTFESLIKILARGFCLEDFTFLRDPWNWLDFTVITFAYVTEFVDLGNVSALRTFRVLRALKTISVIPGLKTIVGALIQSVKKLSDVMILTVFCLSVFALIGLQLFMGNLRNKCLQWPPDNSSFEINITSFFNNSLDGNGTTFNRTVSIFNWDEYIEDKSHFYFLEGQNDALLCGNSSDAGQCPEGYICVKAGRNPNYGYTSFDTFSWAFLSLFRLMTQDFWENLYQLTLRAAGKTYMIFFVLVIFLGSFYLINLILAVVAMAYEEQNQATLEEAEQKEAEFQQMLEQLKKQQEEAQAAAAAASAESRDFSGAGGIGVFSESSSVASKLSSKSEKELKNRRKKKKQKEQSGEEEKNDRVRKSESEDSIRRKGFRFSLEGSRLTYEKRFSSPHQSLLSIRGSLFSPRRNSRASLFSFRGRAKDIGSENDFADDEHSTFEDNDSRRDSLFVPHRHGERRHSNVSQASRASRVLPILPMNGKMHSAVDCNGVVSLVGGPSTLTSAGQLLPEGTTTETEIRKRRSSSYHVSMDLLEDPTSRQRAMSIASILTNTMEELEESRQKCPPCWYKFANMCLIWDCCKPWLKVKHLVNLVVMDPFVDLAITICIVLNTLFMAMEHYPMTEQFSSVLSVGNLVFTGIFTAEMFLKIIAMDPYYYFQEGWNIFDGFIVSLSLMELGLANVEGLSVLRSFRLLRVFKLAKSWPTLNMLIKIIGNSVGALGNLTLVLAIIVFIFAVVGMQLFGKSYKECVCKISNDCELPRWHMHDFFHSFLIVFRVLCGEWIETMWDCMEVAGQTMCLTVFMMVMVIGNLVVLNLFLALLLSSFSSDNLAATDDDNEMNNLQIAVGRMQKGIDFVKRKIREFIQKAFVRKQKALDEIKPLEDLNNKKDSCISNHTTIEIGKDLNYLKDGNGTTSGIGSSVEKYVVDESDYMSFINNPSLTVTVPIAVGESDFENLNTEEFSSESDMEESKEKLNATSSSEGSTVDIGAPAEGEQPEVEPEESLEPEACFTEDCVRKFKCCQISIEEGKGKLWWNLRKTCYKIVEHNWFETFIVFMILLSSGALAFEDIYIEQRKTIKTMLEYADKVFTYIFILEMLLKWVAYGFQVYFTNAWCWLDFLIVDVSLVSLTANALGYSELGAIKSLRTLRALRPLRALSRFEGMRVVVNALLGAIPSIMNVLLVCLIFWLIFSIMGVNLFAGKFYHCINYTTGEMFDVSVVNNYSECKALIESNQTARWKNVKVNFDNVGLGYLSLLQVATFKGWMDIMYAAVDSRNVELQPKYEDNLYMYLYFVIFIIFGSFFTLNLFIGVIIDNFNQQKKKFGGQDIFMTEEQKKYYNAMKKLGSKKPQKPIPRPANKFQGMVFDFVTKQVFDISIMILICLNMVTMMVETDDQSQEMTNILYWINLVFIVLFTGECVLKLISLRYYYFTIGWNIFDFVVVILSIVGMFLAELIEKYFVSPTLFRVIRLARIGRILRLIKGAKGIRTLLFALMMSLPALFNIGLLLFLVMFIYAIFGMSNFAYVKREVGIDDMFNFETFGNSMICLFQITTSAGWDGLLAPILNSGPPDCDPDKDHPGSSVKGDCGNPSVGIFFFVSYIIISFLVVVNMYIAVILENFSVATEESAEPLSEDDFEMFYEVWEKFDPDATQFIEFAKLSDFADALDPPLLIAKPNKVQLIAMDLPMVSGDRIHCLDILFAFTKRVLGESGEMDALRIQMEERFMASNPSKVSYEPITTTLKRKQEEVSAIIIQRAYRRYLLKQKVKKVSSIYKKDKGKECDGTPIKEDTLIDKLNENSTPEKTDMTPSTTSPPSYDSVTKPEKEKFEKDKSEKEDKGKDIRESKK
PROCEDURE DETAILS: Inhibition of Nav1.2 (unknown origin) by cell based assay

QUERY SMILES	TARGET OF ASSAY	EC50 (nM)
CCCCCCCCCC[C@H]1C[C@@]2(CCCO2)NC(=N)N1	Sodium channel protein type 2 subunit alpha (Homo sapiens, UniProt Q99250)	120
CCCCCCCCCC[C@@H]1C[C@]2(CCCO2)NC(=N)N1	Sodium channel protein type 2 subunit alpha (Homo sapiens, UniProt Q99250)	12
CCCCCCCCCC[C@H]1NC(=N)N[C@@]2(CCCO2)[C@H]1C(=O)O	Sodium channel protein type 2 subunit alpha (Homo sapiens, UniProt Q99250)	5.3
CCCCCCCCCC[C@@H]1NC(=N)N[C@]2(CCCO2)[C@@H]1C(=O)O	Sodium channel protein type 2 subunit alpha (Homo sapiens, UniProt Q99250)	79

====

TARGET OF ASSAY: Sodium channel protein type 2 subunit alpha (Homo sapiens)
PROCEDURE DETAILS: Antagonist activity at human Nav1.2 expressed in HEK293T cells assessed as inhibition of VTD-induced tail current by whole cell patch clamp method relative to control
Assay type: cell-based, HEK-293T

QUERY SMILES	IC50 (µM)
CCCCCCCCCC[C@@H]1C[C@]2(CCCO2)NC(=N)N1	0.00028
CCCCCCCCCC[C@H]1NC(=N)N[C@@]2(CCCO2)[C@H]1C(=O)O	0.17
CCCCCCCCCC[C@H]1C[C@@]2(CCCO2)NC(=N)N1	0.002
CCCCCCCCCC[C@@H]1NC(=N)N[C@]2(CCCO2)[C@@H]1C(=O)O	0.035

====

TARGET OF ASSAY: Sodium channel protein type 2 subunit alpha (Homo sapiens)
PROCEDURE DETAILS: Antagonist activity at human Nav1.2 expressed in HEK293T cells assessed as inhibition of VTD-induced sustained current by whole cell patch clamp method relative to control
Type: cell-based, HEK-293T
Measured IC50, listed per entry for reference.

QUERY SMILES	IC50 [nM]
CCCCCCCCCC[C@H]1C[C@@]2(CCCO2)NC(=N)N1	2.1
CCCCCCCCCC[C@@H]1C[C@]2(CCCO2)NC(=N)N1	0.45
CCCCCCCCCC[C@@H]1NC(=N)N[C@]2(CCCO2)[C@@H]1C(=O)O	7.5
CCCCCCCCCC[C@H]1NC(=N)N[C@@]2(CCCO2)[C@H]1C(=O)O	26
